# Subject of test: 生物素化的SARS-CoV-2 RBD (SARS-CoV-2, UniProt P0DTC2 319-541)
# Assay: ELISA screen, Fab culture supernatant on streptavidin-captured biotinylated RBD
Result type: binding result

Suppose we examine the binder CB6-17 (轻链突变库克隆) (Fab, V domains shown, also called CB6-17-VL; CB6-17-LC) VH: EVQLVESGGGLVQPGGSLRLSCAASGFTVSSNYMSWVRQAPGKGLEWVSVIYSGGSTFYADSVKGRFTISRDNSMNTLFLQMNSLRAEDTAVYYCARVLPMYGDYLDYWGQGTLVTVSS VL: DIVMTQSPSSLSASVGDRVTITCRASQVINHYLNWYQQKPGKAPKLLIYAASSLQSGVPSRFSGSGSGTDFTLTISSLQPEDFATYYCQQSGSPTPEYTFGQGTKLEIK ; what binding result value has been reported? binds
